- method_notes: Solubility of compound in water at pH 7
- Format: physicochemical
Measured solubility by item
Express it in µg/mL; write the number only.

Please review the following examples before continuing.
>>> print(df.to_string())
                         compound_structure   val
0  Cc1cc(C#N)cc(C)c1Oc1nc(NC2CCN(CCN3CCOCC3)CC2)nc2sccc12  29.3
1  Cc1cc(C#N)cc(C)c1Oc1nc(NC2CCN(CC(=O)N3CCOCC3)CC2)nc2sccc12  34.2

[ask] Need solubility of Cc1cc(C#N)cc(C)c1Oc1nc(NC2CCN(CC(=O)N3CCOCC3)CC2)nc2c1SCC2 , thanks.
[reply] 35.2

[ask] Then what about the compound Cc1cc(C#N)cc(C)c1Oc1nc(NC2CCN(CCN3CCOCC3)CC2)nc2ccsc12 ?
[reply] 24.4
